- Test system: NCI-H226 lung
- assay remarks: NCI-60 one-dose screen, 48 h (100 = growth as untreated, 0 = no growth, -100 = all killed)
- study conditions: 10 µM unless noted
The panel holds about 83,000 compounds, 20% with a hit somewhere; the sample as a whole holds those more often.
readout: growth (%)
Only the number, expressed in %, is required.

C#CCNC(=O)[C@H](CC)[C@H]1CC[C@H](C)[C@H]([C@@H](C)[C@H](O)[C@H](C)C(=O)[C@H](CC)C2O[C@]3(C=CC(=O)[C@]4(CC[C@@](C)([C@H]5CC[C@](O)(CC)[C@H](C)O5)O4)O3)[C@H](C)C[C@@H]2C)O1 (some centres not stated)	57.7

Look up growth for this molecule: "O=c1scc(-c2ccc(C(F)(F)F)cc2)s1"
91

Repeat for the following molecule: "C=CCSc1nnc(NC(=O)CCl)s1"
88.8

Entry to check: "COc1ccc(-c2nn(-c3cccc(Cl)c3)cc2-c2cc(-c3ccc(Br)cc3)nc(N)n2)cc1"
86

Consider next the molecule "O=C(COc1ccc(-c2nc3cc(Cl)c(Cl)cc3[nH]2)cc1)N=Nc1c(O)[nH]c2ccc(Cl)cc12" in the same way.
80.8

Would you kindly repeat that for COc1cc(C2CC(c3ccc(Nc4nc(Nc5ccc(Cl)cc5)nc(Nc5ccc(Cl)cc5)n4)cc3)=NN2C(C)=O)cc(OC)c1OC (configuration not stated) ?
104

# iterate: CC1(C)CC(=O)C2=C(C1)N(c1ccc(OC(F)(F)F)cc1)C(N)=C(C#N)C2c1ccc(Br)cc1F (configuration not stated)
33.1

// query: CCN(CC)CC(O)COc1c(Br)c(Br)c(Br)c2c1OC(C)(C)C2 (configuration not stated)
46.4

// next record "O=[N+]([O-])c1ccc(O)cc1Br"
93.2

Another molecule to look at: "c1ccc(-c2oc(-c3ccccc3)c(CN3CCCCC3)c2CN2CCCCC2)cc1"
47.5

Would you kindly repeat that for COC(CC(F)F)c1cn(S(=O)(=O)c2ccc(C)cc2)c2ccccc12 (configuration not stated) ?
75.9

Also, "COC12C=C/C(=C(/C(=O)OCc3ccncn3)C(=O)CCCCCCCCC3(OC)C=C/C(=C(/C(=O)OCc4ccncn4)C(=O)CCCCCCCC1)O3)O2" please.
-71.8

Continue with "Fc1ccc(CNc2c3ccccc3nc3ccccc23)c(F)c1"
54.8

CCCCCCCCCCC(CN(CC)CC)C(O)c1ccccc1 (configuration not stated) , same question.
15.4

Next record, please: "C=C(C)[C@@H]1CCC[C@]2(COS(=O)(=O)c3ccc(C)cc3)CC[C@]3(C)[C@@H](CC[C@@H]4[C@@]5(C)CCCNC(C)(C)[C@@H]5CC[C@]43C)[C@@H]12"
82.1

Also O=C(CN1C(=O)NC2NC(=O)NC21)N/N=C/c1ccccc1[N+](=O)[O-] (configuration not stated) ?
87.6

Can you check "CCNCCNc1cc(C2CCCCC2)c(C#N)c2nc3ccccc3n12" next?
15.3

For COC1/C=C/OC2(C)Oc3c(C)c(O)c4c(O)c(c(/C=N/Nc5ccc([N+](=O)[O-])cc5[N+](=O)[O-])c(O)c4c3C2=O)NC(=O)C(C)=C/C=C/C(C)C(O)C(C)C(O)C(C)C(OC(C)=O)C1C (configuration not stated) then?
-57.2
